MEASUREMENT NOTES: GFP drop in mixed WT/humanized-ribosome E. coli culture – GFP/RFP fluorescence, OD600, single point, bacterial rRNA inhibitor project, primary screen (AID 720706)
CONDITION CONTEXT: E. coli WT GFP vs humanized-ribosome RFP mutants, 24 h; measured here: OD600 growth, DMSO median 0, no signal -100
The campaign covered roughly 350,000 compounds. About 5,500 (1.6%) were called active. What follows is part of a selection rich in actives, with near analogues and random picks from the rest.
The entries below come with measured OD600 change values attached.
Output spec: scalar in %, unitless text.

Exercise: Fill blank: measured OD600 change of the molecule `COc1cc(/C=C/C(=O)N2CCc3ccccc3C2)cc(OC)c1OC` is ____.
Solution: -16.9

Exercise: Fill blank: measured OD600 change of the molecule COc1cccc(CNC(=O)C2CCCN(c3ncnc4c3nc3n4CCCCC3)C2)c1 (centres undefined) is ____.
Solution: 3.87

Exercise: Fill blank: measured OD600 change of the molecule `C[C@@H](NC(=O)C[C@@H]1CC[C@H]2[C@@H](COC[C@@H](O)CN2C(=O)Nc2cccc(F)c2)O1)c1ccccc1` is ____.
Solution: -6.23

Exercise: Fill blank: measured OD600 change of the molecule `CCC(=O)N1[C@@H](CO)[C@H](c2ccc(-c3cccc(F)c3)cc2)[C@@H]1CNC(C)=O` is ____.
Solution: 3.25

Exercise: Fill blank: measured OD600 change of the molecule `Cc1cc(C(=O)COC(=O)C2CC2)c(C)n1-c1ccc(F)cc1` is ____.
Solution: -8.48

Exercise: Fill blank: measured OD600 change of the molecule `COc1ccccc1NC(=O)N[C@H]1CC[C@@H](CC(=O)NCc2ccc(Cl)c(Cl)c2)O[C@H]1CO` is ____.
Solution: -22.7

====

The entries below come with measured RFP signal change values attached.
MEASUREMENT NOTES: GFP drop in mixed WT/humanized-ribosome E. coli culture – GFP/RFP fluorescence, OD600, single point, bacterial rRNA inhibitor project, primary screen (AID 720706)
CONDITION CONTEXT: E. coli WT GFP vs humanized-ribosome RFP mutants, 24 h; measured here: RFP humanized mutant strains, DMSO median 0, no signal -100, concentration not given here
About 5,500 (1.6%) of roughly 350,000 compounds were called active. This is one part of a sample in which actives are shown more often than they occur.
Output spec: scalar in %, unitless text.

Consider the reported RFP signal change for these compounds:
>  <COMPOUND>
CCC(=O)N(C)C[C@H]1Oc2cc(/C=C/c3ccccc3)ccc2S(=O)(=O)N([C@H](C)CO)C[C@@H]1C

>  <READOUT VALUE>
1.56

$$$$
>  <COMPOUND>
O=C(Nc1ccc(F)cc1)N1CC(=O)N2[C@H](CO)[C@H](c3ccc(C#Cc4ccccc4)cc3)[C@H]2C1

>  <READOUT VALUE>
29

$$$$
>  <COMPOUND>
O=C(C[C@H]1CC[C@H]2[C@@H](COC[C@@H](O)CN2S(=O)(=O)c2ccc(Cl)cc2)O1)NCCN1CCCCC1

>  <READOUT VALUE>
-0.478

$$$$
>  <COMPOUND>
CC(C)NC(=O)N(C)C[C@H]1OCCCC[C@H](C)Oc2ccc(NC(=O)CCCN(C)C)cc2C(=O)N([C@@H](C)CO)C[C@H]1C

>  <READOUT VALUE>
-0.182

$$$$
>  <COMPOUND>
COc1ccc(C(C)=O)cc1COc1ccc(Cl)c(C)c1

>  <READOUT VALUE>
1.65

$$$$
>  <COMPOUND>
CC1(C(=O)Nc2ccc3c(c2)OCCO3)CSCC(=O)N1CCOc1ccccc1 (centres undefined)

>  <READOUT VALUE>
6.62

$$$$
>  <COMPOUND>
O=C(c1ccccc1F)N1CC(=O)N2[C@H](CO)[C@@H](c3ccc(-c4cccnc4)cc3)[C@H]2C1

>  <READOUT VALUE>
2.58

$$$$
>  <COMPOUND>
CCOc1ccc(C(C)=O)cc1COC(=O)c1cnc(Cl)c(Cl)c1

>  <READOUT VALUE>
-2.34

$$$$

Exercise: Fill blank: measured RFP signal change of the compound `Cc1ccc(/C(N)=N/OC(=O)COc2ccc(Cl)c(C)c2)cc1` is ____.
Solution: -7.27
